assay: Kinetic solubility in PBS at pH 7.4 by chemiluminescent nitrogen detection assay
# log10 solubility kinetic values compiled below
Result Type: log10 solubility kinetic (log10 of the value in µM)

>  <Smiles Data>
CC(C)(C)C(=O)NCCC1CCN(c2ncnc3cc(C(N)=O)sc23)CC1

>  <Result Type>
log10 solubility kinetic

>  <Reported Result>
2.47

$$$$
>  <Smiles Data>
CCNC(=O)c1ccc(C(=O)NCCC2CCN(c3ncnc4cc(C(N)=O)sc34)CC2)s1

>  <Result Type>
log10 solubility kinetic

>  <Reported Result>
0.95

$$$$
>  <Smiles Data>
CCNC(=O)c1cccc(C(=O)NCCN2CCN(c3ncnc4cc(C(N)=O)sc34)CC2)c1

>  <Result Type>
log10 solubility kinetic

>  <Reported Result>
2.34

$$$$
>  <Smiles Data>
CCNC(=O)c1ccc(C(=O)NCCN2CCN(c3ncnc4cc(C(N)=O)sc34)CC2)s1

>  <Result Type>
log10 solubility kinetic

>  <Reported Result>
1.81

$$$$
>  <Smiles Data>
CCNC(=O)c1cccc(C(=O)NCCC2CCN(c3ncnc4cc(C(N)=O)sc34)CC2)c1

>  <Result Type>
log10 solubility kinetic

>  <Reported Result>
1.28

$$$$

Entry source: ChEMBL document CHEMBL2331260
